test: E. coli acrAB mutant growth effects, primary screen, E. coli filamentation inducers, strain DRC39, OD650, 48 h (AID 1179);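 note: screen aims at cell division blockers that make cells filament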; conditions: E. coli DRC39 delta-acrAB growth, higher = more signal, called active from +8 up or from −8 down
So I've got a bunch of compounds here, and I need their z-score values.
Answer using only a numeral; do not append any unit.

Input line: Which measured z-score value corresponds to COC(=O)C1(Cc2ccccc2)C=C2C(=C(C(C)C)C(=O)C2C)CN1 (centres undefined) ?
Output line: -0.927

Input line: Field entry: COC(=O)[C@@]1(Cc2ccc(OC)cc2)[C@H]2c3cc(C(=O)N4CCCC4)n(CCc4cc5ccccc5[nH]4)c3C[C@H]2CN1C(=O)c1ccccc1
Output line: -0.655

Input line: Follow-up item: CC(C)C(=C=CC[C@@H](O)c1ccccc1OCCO)C[C@@H](O)COCc1ccccc1
Output line: 1.51

Input line: Queued: COc1ccc(C(O)C2C=CC3C(=O)N(C)C(=O)C3N2N2CCCCC2)cc1 (centres undefined)
Output line: -0.858

Input line: Note, next up: [N-]=[N+]=NCc1ccccc1[C@H]1OC(c2ccc(OCCCO)cc2)=N[C@@]1(CCS(=O)(=O)c1ccccc1)C(N)=O
Output line: -0.702

Input line: // next record COc1ccc(NN2C(C(O)c3ccccn3)C=CC3C(=O)N(C4CCCCC4)C(=O)C32)cc1 (centres undefined)
Output line: 0.824

Input line: Another compound: CCOc1cc(C(O)C2C=CC3C(=O)N(C)C(=O)C3N2N2CCCCC2)ccc1O (centres undefined)
Output line: -0.8

Input line: // query: COc1ccc([Si](C)(C)[C@H]2[C@H](CCO)O[C@@]3(C(=O)N(Cc4cccc(N5CCCCC5=O)c4)c4ccccc43)[C@@H]2C)cc1
Output line: 1.26

Input line: # iterate: [N-]=[N+]=Nc1ccccc1[C@H]1OC(c2ccc(OCCCO)cc2)=N[C@@]1(CCS(=O)(=O)c1ccccc1)C(=O)N1CCCCC1
Output line: -0.714
